Molecular target: T1, IL-6R-Fc 항원 (IL-6R full domain 단백질) (human, UniProt P08887 20-365)
T1 construct: domain: IL-6R full domain; Expressed transiently in HEK293E and purified from the supernatant; also called IL-6R 항원; not shown: Fc part from expression vector pYK 604
T1 sequence (looked up): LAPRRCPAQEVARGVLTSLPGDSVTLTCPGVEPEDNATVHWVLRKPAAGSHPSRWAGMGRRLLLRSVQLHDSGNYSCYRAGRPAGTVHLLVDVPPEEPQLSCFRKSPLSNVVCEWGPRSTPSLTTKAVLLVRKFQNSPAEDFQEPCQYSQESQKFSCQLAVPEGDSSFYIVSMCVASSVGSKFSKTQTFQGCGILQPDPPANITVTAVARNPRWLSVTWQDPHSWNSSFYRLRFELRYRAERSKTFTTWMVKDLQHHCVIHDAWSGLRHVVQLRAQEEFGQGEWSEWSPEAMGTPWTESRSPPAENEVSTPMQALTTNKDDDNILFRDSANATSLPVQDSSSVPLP
Test: ELISA, coated IL-6R 100 ng/well, anti-Fab-HRP
Answer each item with its documented OD 490 nm at 0.09766 nM antibody.
Answers are plain numbers, in OD490.

{"binder": "항 IL-6R 단클론 항체 A7 (IgG) (antibody, V domains shown, Phage clone converted to whole IgG) VH: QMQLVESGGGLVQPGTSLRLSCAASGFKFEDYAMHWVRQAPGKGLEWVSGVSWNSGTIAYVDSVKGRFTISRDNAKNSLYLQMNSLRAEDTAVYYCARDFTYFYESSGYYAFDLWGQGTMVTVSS VL: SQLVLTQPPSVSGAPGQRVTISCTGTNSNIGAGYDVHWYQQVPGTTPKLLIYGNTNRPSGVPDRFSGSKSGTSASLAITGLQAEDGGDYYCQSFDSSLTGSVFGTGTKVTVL", "observed-result": 0.497}
{"binder": "항 IL-6R 단클론 항체 D2 (IgG) (antibody, V domains shown, Phage clone converted to whole IgG) VH: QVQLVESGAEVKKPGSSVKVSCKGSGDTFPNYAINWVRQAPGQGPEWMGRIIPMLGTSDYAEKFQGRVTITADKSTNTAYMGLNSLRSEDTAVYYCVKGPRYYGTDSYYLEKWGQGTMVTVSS VL: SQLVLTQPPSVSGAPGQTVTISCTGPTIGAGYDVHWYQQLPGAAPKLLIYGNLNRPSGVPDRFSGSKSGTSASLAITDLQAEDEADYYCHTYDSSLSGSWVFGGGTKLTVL", "observed-result": 0.45}
{"binder": "항 IL-6R 단클론 항체 B10 (IgG) (antibody, V domains shown, Phage clone converted to whole IgG) VH: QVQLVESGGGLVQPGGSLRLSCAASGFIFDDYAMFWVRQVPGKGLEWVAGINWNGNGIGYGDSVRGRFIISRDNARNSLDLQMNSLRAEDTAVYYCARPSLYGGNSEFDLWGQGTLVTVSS VL: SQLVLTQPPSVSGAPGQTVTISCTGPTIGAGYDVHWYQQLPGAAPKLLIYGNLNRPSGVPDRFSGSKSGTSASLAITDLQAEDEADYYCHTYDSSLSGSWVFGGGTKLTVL", "observed-result": 0.462}

Consider the record given below.
Challenge: Reported OD 490 nm at 0.09766 nM antibody for 항 IL-6R 단클론 항체 F2 (IgG) (antibody, V domains shown, Phage clone converted to whole IgG) VH: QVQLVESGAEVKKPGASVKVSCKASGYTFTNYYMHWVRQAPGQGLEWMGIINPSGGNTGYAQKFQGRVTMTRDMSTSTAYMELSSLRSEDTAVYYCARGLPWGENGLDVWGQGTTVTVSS VL: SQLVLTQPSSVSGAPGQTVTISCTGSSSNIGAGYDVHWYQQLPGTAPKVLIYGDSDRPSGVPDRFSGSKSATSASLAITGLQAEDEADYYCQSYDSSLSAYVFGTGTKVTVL : what is it?
Response given: 0.743
